Some sequences, each annotated with its measured interaction data at Target Concentration 100.
target: WWP1 (Homo sapiens); construct: GST-TEV (N, cleaved yes); made in house; host or cells: Escherichia coli BL21 (DE3); assay: Naive Library Presenter Screening (phage, NGS), WWP1 (construct not given); format: binding; conditions: WWP1 target concentration 100 nM
Numbered stars: 1 amine (or outer) side, 2 acyl side, 3 side chain; on linkers, the order of the positions; unused ones are H or OH. Bridge positions count the residues as written; N and C are the ends. Ends that are not written are not given here. Phenylene(1,4-NHCOCH2)2 = O=C(C[*:1])Nc1ccc(NC(=O)C[*:2])cc1
Please give only the number in your answer, with no unit.

// query interaction data at Target Concentration 100 value for entry DPAMRRCHQAAWVCEVL (linker 7-14 via Phenylene(1,4-NHCOCH2)2)
98

Given DPAATLCNQAANVCALL (linker 7-14 via Phenylene(1,4-NHCOCH2)2) , state its recorded interaction data at Target Concentration 100.
132

Would you kindly share the measured interaction data at Target Concentration 100 for DPAWVSCVRAANLCHVS (linker 7-14 via Phenylene(1,4-NHCOCH2)2 (inferred); not fully specified (C-terminus)) ?
0

Entry DPALQTCMDAAQVCRLL (linker 7-14 via Phenylene(1,4-NHCOCH2)2) : reported interaction data at Target Concentration 100 = ?
107

Which interaction data at Target Concentration 100 is listed for DPATHVCTTAA VMCHQT (DPATHVCTTAAVMCHQT; not fully specified; cysteine pairing not given here) ?
6
